Each record here notes measured Ki.
Target: rat NPC1L1 (Rattus norvegicus, UniProt Q6T3U3, A349V/E317P/G318E/K324N/L297S)
Construct: expressed in transfected cells
Test: Fluorescence NPC1L1 binding assay, HEK-293 cells, BODIPY-labeled compound 1
Conditions: Rat NPC1L1, competition with compound 1; read-out: Ki
Write it as a number; the unit nM goes unstated.

Given item `O=C(O)[C@H]1O[C@@H](Oc2ccc([C@@H]3[C@@H](CC[C@H](O)c4ccc(F)cc4)C(=O)N3c3ccc(F)cc3)cc2)[C@H](O)[C@@H](O)[C@@H]1O` , the value recorded as its Ki is 352

Given item `O=C1[C@H](CC[C@H](O)c2ccc(F)cc2)[C@@H](c2ccc(O)cc2)N1c1ccc(F)cc1` , the value recorded as its Ki is 970
